Molecular target: bovine MMP13 (bovine, UniProt O77656 104-471)
Assay: cell-based or functional assay
recorded_endpoint: IC50, bovine fluorogenic peptide assay (µM)

INSERT INTO results (binder, recorded_endpoint, numeric_readout) VALUES
  ('C0101PMP520C04 (VHH, Profile 2 Nanobody) VHH: DVQLVESGGGLVQPGGSLRLSCAASGRTFSSYAMGWFRQAPGKEREFVAAISWSGGSTYYSDSVKGRFTISRDNSKNTVYLQMNSLRPEDTAVYYCTAARGGVAGTDGPLGDYNYWGQGTLVTVSS', 'IC50, bovine fluorogenic peptide assay', 0.0279),
  ('C0101PMP059F06 (VHH, Profile 2 Nanobody) VHH: EVQLVESEGGTVEPGESLRLACAAPGPGIRTNFMAWYRQAPEKEREMVASISRDGSTHYADSVKGRFTISSDNATSTFYLQMNSLQVEDTAVYYCATDPHILHNDRAGAFLVEDYDHWGQGTQVTVSS', 'IC50, bovine fluorogenic peptide assay', 0.108),
  ('C0101PMP519E04 (VHH, Profile 2 Nanobody) VHH: DVQLVESGGGLVQPGGSLRLSCVASGPTFSDYAMGWFRQAPGKEREFVAAISWSGGSTYYADSVKGRFTISRDNSKNTVYLQMNSLRPEDTAVYYCTAARGGGYRASGGPLSEYNYWGQGTLVTVSS', 'IC50, bovine fluorogenic peptide assay', 0.0171),
  ('C0101PMP517A01 (VHH, Profile 2 Nanobody; also called C0101517A01; C010100087 (parental)) VHH: DVQLVESGGGLVQPGGSLRLSCAASGRTFSSYAMGWFRQAPGKEREFVAAISWSGGSTYYADSVKGRFTISRDNSKNTVYLQMNSLRPEDTAVYYCTAALAVYGPNRYRYGPVGEYNYWGQGTLVTVSS', 'IC50, bovine fluorogenic peptide assay', 0.0064);

P: C0101PMP080A01 (VHH) VHH: EVQLVESGGGLVQPGGSLRLSCAASGFTLAYYSIGWFRQAPGKEREGVSCISSGIDGSTYYADSVKGRFTISRDNAKNTMYLQMNNLKPEDTGVYYCAADPSHYYSEYDCGYYGMDYWGKGTLVTVSS
Q: C0101PMP513C04 (VHH) VHH: DVQLVESGGGLVQPGGSLRLSCAASGRTFSRYVMGWFRQAPGKEREFVAAINWSSGSTYYADSVKGRFTISRDNSKNTVYLQMNSLRPEDTAVYYCAADRRVYYDTYPNLRGYDYWGQGTLVTVSS
R: C0101PMP525C04 (VHH, Profile 2 Nanobody) VHH: DVQLVESGGGLVQPGGSLRLSCAGSGSIFSGNAMGWYRQAPGKQRELVAAITSGGVTNYADSVKGRFTISRDNSKNTVYLQMNSLRPEDTAVYYCAADIRYPTGLVGDYWGQGTLVTVSS
S: C0101PMP529G11 (VHH, Profile 2 Nanobody) VHH: DVQLVESGGGLVQPGGSLRLSCAASGSIFRINAMGWYRQAPGKQRELVAAIISGGTTYYADSVKGRFTISRDNSKNTVYLQMNSLRPEDTAVYYCYADIGWPYVLDYDFWGQGTLVTVSS
Put the binders in ascending order of IC50, bovine fluorogenic peptide assay. Present the labels in the sequence the task asks for.
P, S, Q, R
(P: 0.0064 µM, S: 0.0201 µM, Q: 0.0487 µM, R: 0.108 µM)
